Listed binders paired with reported pKd
# Test System: T1, PD-L1 recombinant protein (human, UniProt Q9NZQ7 19-238, limits assumed)
# T1 construct: also called PD-L1 antigen
# T1 sequence (Q9NZQ7 19-238 limits assumed): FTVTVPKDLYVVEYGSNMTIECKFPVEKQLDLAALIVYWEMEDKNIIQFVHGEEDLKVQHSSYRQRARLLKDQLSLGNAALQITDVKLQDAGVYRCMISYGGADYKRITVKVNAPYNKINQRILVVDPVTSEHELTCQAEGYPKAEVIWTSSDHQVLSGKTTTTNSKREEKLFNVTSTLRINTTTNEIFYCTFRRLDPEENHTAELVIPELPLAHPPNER
# Method Description: ForteBio Octet RED96, PD-L1 immobilised, antibody in solution
pKd (log units): -log10 of the concentration in mol/L.

# annotated cases, reported pKd shown
{"Binder": "PL004B9 Fc-scFv (Fc fusion, not shown: a dimerising Fc or GST; small tags and cut ends, scFv at the C-terminus of an Fc) scFv: EVQLVESGGGLVQPGGSLRLSCTVSGIDLSVINMGWVRQAPGKGLEWIGTITYVGNTYYASWAKGRFTISKTSTTVDLKITSPTTEDTAVYYCARESGTIYYSYFNLWGQGTLVTVSSGGGGSGGGGSGGGGSGGGGSAFELTQSPSSLSASVGDRVTIKCQASESISNYLSWYQQIPGKVPKLLIYYASNLASGVPSRFSGSGSGTDFTLTISSLQPEDVATYYCQSYYGGGSAYTFGGGTKVEIK", "Numeric Value": 8.81}
{"Binder": "PL230C6 mAb (antibody, V domains shown, also called PL23006) VH: QSVEESGGGLVQPGGSLRLSCTASGIDLNTYDMIWVRQAPGKGLEWVGIITYSGSRYYANWAKGRFTISKDNTKNTVYLQMNSLRAEDTAVYYCARDYMSGSHLWGQGTLVTVSS VL: AYDMTQSPSSVSASVGDRVTIKCQASEDIYSFLAWYQQKPGKAPKLLIHSASSLASGVPSRFSGSGSGTDFTLTISSLQPEDFATYYCQQGYGKNNVDNAFGGGTKVEIK", "Numeric Value": 9.11}

Now for another entry.
Per the records, this binder ( PL230C6 Fc-scFv (Fc fusion, scFv at the C-terminus of an Fc; The Fc part is not specified; also called PL23006; not shown: The Fc part and the linker joining it to the scFv) scFv: QSVEESGGGLVQPGGSLRLSCTASGIDLNTYDMIWVRQAPGKGLEWVGIITYSGSRYYANWAKGRFTISKDNTKNTVYLQMNSLRAEDTAVYYCARDYMSGSHLWGQGTLVTVSSGGGGSGGGGSGGGGSGGGGSAYDMTQSPSSVSASVGDRVTIKCQASEDIYSFLAWYQQKPGKAPKLLIHSASSLASGVPSRFSGSGSGTDFTLTISSLQPEDFATYYCQQGYGKNNVDNAFGGGTKVEIK ) has pKd equal to 9.06

Origin of the recorded values: patent US20200347137A1
